Field: log S. Provide a value for each of the compounds that follow.
# Assay comment: Logarithm of water solubility was reported
# Assay type: ADME
# Test conditions: buffer
One number for each entry, in M/m3.

// solved cases for log S follow
Compound	Quantity unit	log S
CC(=O)O[C@@H]1CC(=O)O[C@H]1CO	M/m3	3.62
CCCCCCCC/C=C/CCCCCCCC(=O)O[C@@H]1CC(=O)O[C@H]1CO	M/m3	-3.9
CCCCCCCc1ccc(C(=O)O[C@@H]2CC(=O)O[C@H]2CO)cc1	M/m3	-2.05

Here are 4 compounds. What values of log S were reported for them?
1. CCCCCCCCCCC(C)CCCCCCC(=O)O[C@@H]1CC(=O)O[C@H]1CO (some centres not stated)
2. CCCCCCCCCCCCCCCCCC(=O)O[C@@H]1CC(=O)O[C@H]1CO
3. O=C1C[C@@H](OC(=O)Cc2ccccc2)[C@H](CO)O1
4. CCCCCC(=O)O[C@@H]1CC(=O)O[C@H]1CO

1: -4.9; 2: -4.7; 3: 1.09; 4: 1.54

----------
For each record, write down the corresponding inhibition.
# Organism: Mus musculus
# Assay comment: Inhibition of [3H]phorbol-12,13-dibutyrate binding to mouse brain protein kinase C at 100 ug/mL

// solved cases for inhibition follow
Test smiles	inhibition
COc1ccc(C(=O)O[C@H]2CC(=O)O[C@@H]2CO)cc1	2%
O=C(Cc1ccccc1)O[C@H]1CC(=O)O[C@@H]1CO	29%
O=C1C[C@H](OC(=O)c2ccc3ccccc3c2)[C@@H](CO)O1	28%
O=C1C[C@H](OC(=O)c2cccc3ccccc23)[C@@H](CO)O1	30%

Can you give me inhibition for all of these, one by one?
1. O=C1C[C@H](OC(=O)c2ccccc2)[C@@H](CO)O1
2. O=C(/C=C/c1ccccc1)O[C@H]1CC(=O)O[C@@H]1CO
3. CCc1ccc(C(=O)O[C@H]2CC(=O)O[C@@H]2CO)cc1
4. O=C1C[C@H](OC(=O)c2ccc(-c3ccccc3)cc2)[C@@H](CO)O1

9.5%
18.5%
21%
6.5%

----------
For each record, write down the corresponding log10 of Ki.
# Assay comment: Inhibition of [3H]phorbol-12,13-dibutyrate binding to mouse brain protein kinase C
Heads up: the numbers are on a log10 scale; they represent Ki in µM.

Recorded log10 of Ki, per entry:
Compound	Endpoint name	Value observed
CCCCCCCc1ccc(C(=O)O[C@@H]2CC(=O)O[C@H]2CO)cc1	log10 of Ki	0.51
CCCCCCCC/C=C/CCCCCCCC(=O)O[C@@H]1CC(=O)O[C@H]1CO	log10 of Ki	0.12
O=C1C[C@@H](OC(=O)c2cccc3ccccc23)[C@H](CO)O1	log10 of Ki	1.37
CCCCCCCCCCC(CCCC)CCCCCCC(=O)O[C@@H]1CC(=O)O[C@H]1CO (some centres not stated)	log10 of Ki	0.39
CCCCCCCCCCC(C)CCCCCCC(=O)O[C@@H]1CC(=O)O[C@H]1CO (some centres not stated)	log10 of Ki	0.38
CCCCCCCCCCCCCCCCCC(=O)O[C@@H]1CC(=O)O[C@H]1CO	log10 of Ki	0.94
CCCCCCCCCCC(CCCCCCC(=O)O[C@@H]1CC(=O)O[C@H]1CO)c1ccccc1 (some centres not stated)	log10 of Ki	0.08
CCCCCC(=O)O[C@@H]1CC(=O)O[C@H]1CO	log10 of Ki	2.27
CCCCCCCCCCCCCC(=O)O[C@@H]1CC(=O)O[C@H]1CO	log10 of Ki	0.40
CCCCCCCc1ccc(C(=O)O[C@H]2CC(=O)O[C@@H]2CO)cc1	log10 of Ki	0.95

Give measured log10 of Ki for every item shown.
1. CCCCCCCCCCCCCC(=O)O[C@H]1CC(=O)O[C@@H]1CO
2. CCCCCCCCCC(=O)O[C@@H]1CC(=O)O[C@H]1CO

1. 0.72
2. 0.61
